# assayed_system: T1, human MSLN-FL-his protein (human, UniProt Q13421 296-580)
# T1 construct: Self-made in HEK293E cells; also called human MSLN full-length protein; hMSLN-FL-his; not shown: His tag
# T1 sequence (Q13421 other isoform, or with tags, fused parts or gaps): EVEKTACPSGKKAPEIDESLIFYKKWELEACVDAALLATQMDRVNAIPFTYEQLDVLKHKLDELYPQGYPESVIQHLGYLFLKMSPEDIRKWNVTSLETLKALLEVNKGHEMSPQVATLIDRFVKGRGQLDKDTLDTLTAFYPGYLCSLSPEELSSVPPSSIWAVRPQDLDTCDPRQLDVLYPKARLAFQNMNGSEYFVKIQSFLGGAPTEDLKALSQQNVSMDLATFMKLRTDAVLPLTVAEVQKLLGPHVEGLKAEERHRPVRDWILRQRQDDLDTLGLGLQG
# experiment_description: ELISA on coated antigen, antibody 0.01 nM

[
  {
    "binder": "S009-F3.45.21 (antibody, human IgG1, kappa, V domains shown, Human-murine chimeric antibody: murine VH/VL on human IgG1 heavy and kappa light constant regions) VH: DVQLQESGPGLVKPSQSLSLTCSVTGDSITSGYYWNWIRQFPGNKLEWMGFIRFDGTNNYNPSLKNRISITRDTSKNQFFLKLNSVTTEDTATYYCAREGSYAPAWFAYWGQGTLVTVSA VL: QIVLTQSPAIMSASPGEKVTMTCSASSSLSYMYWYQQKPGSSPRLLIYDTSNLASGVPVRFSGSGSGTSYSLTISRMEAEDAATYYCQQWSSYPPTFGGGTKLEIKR",
    "units": "OD450",
    "OD450": 0.69
  },
  {
    "binder": "S009-F3.16.1 (antibody, human IgG1, kappa, V domains shown, Human-murine chimeric antibody: murine VH/VL on human IgG1 heavy and kappa light constant regions) VH: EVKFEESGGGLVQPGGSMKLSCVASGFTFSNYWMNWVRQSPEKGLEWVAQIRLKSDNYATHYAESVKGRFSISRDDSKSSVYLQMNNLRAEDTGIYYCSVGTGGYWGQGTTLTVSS VL: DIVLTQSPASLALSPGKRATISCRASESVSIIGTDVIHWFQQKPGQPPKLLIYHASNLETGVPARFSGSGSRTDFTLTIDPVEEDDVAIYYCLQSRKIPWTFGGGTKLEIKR",
    "units": "OD450",
    "OD450": 0.07
  },
  {
    "binder": "S009-F3.38.10 (antibody, human IgG1, kappa, V domains shown, Human-murine chimeric antibody: murine VH/VL on human IgG1 heavy and kappa light constant regions) VH: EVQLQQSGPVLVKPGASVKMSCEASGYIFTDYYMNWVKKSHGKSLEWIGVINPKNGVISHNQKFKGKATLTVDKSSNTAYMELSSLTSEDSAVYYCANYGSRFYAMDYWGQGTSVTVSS VL: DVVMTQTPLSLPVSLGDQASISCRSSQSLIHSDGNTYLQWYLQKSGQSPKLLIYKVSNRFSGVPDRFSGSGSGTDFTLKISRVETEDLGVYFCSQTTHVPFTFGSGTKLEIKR",
    "units": "OD450",
    "OD450": 0.07
  },
  {
    "binder": "S009-F3.80.22 (antibody, human IgG1, kappa, V domains shown, Human-murine chimeric antibody: murine VH/VL on human IgG1 heavy and kappa light constant regions) VH: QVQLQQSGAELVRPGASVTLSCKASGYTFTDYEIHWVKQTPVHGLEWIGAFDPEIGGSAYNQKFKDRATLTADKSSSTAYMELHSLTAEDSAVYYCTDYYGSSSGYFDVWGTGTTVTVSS VL: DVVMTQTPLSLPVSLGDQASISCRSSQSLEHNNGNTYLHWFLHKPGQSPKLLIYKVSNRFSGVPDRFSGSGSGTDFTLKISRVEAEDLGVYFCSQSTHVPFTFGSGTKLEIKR",
    "units": "OD450",
    "OD450": 0.69
  },
  {
    "binder": "S009-F3.7.3 (antibody, human IgG1, kappa, V domains shown, Human-murine chimeric antibody: murine VH/VL on human IgG1 heavy and kappa light constant regions) VH: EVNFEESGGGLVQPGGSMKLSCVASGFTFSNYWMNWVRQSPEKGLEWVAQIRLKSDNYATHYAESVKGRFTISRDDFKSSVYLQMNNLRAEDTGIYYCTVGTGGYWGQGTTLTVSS VL: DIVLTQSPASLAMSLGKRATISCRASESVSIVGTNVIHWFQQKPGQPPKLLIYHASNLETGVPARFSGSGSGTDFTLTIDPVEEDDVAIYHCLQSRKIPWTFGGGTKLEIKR",
    "units": "OD450",
    "OD450": 0.07
  },
  {
    "binder": "S009-F3.74.20 (antibody, human IgG1, kappa, V domains shown, Human-murine chimeric antibody: murine VH/VL on human IgG1 heavy and kappa light constant regions) VH: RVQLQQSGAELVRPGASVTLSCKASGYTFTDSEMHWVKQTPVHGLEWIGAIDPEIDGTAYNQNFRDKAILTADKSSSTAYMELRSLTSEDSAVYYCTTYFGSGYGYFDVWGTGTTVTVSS VL: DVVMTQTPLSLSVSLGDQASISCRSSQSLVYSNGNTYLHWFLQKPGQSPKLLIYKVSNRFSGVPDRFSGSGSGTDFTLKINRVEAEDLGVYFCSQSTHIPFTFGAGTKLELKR",
    "units": "OD450",
    "OD450": 0.42
  }
]

Cited source: patent US20250250357A1
